# Tested on: human neurons
# assay-name: Mitochondrial damage to neurons induced by rotenone
# Type: cell-based
# protocol-conditions: rotenone 10 μM, drug 10 μM
Where a name gives a salt, the structure may show the parent alone.
measured-parameter: neurotoxicity by rotenone (mitochondrial damage)

[
  {
    "compound": "CC(CN1c2ccccc2Sc2ccccc21)N(C)C (centres unmarked) [PROMETHAZINE HYDROCHLORIDE]",
    "recorded-value": "reduced neurotoxicity"
  },
  {
    "compound": "N#Cc1ccc2c(c1)N(CCCN1CCC(O)CC1)c1ccccc1S2",
    "recorded-value": "reduced neurotoxicity"
  },
  {
    "compound": "CC(CN(C)C)CN1c2ccccc2CCc2ccccc21 (centres unmarked) [TRIMIPRAMINE MALEATE]",
    "recorded-value": "reduced neurotoxicity"
  }
]

###

# System: human neurons
# assay-name: Iron (FeSO4) mediated neurotoxicity screening, MAP-2 positive neurons counted
# Assay type: cell-based
# protocol-conditions: drug 10 μM 1 h before FeSO4 25 or 50 μM; MAP-2 neurons after 24 h
The label Condition met is reserved for Drug % control (mean): number of neurons normalized to untreated control strictly under 60%; Condition not met covers values equal to or above it.

[
  {
    "compound": "CCCc1nc(C(C)(C)O)c(C(=O)OCc2oc(=O)oc2C)n1Cc1ccc(-c2ccccc2-c2nnn[nH]2)cc1",
    "classification": "Condition met"
  },
  {
    "compound": "NCC[C@H](O)C(=O)N[C@@H]1C[C@H](N)[C@@H](O[C@H]2O[C@H](CN)[C@@H](O)[C@H](O)[C@H]2O)[C@H](O)[C@H]1O[C@H]1O[C@H](CO)[C@@H](O)[C@H](N)[C@H]1O.O=S(=O)(O)O.O=S(=O)(O)O [AMIKACIN SULFATE]",
    "classification": "Condition met"
  },
  {
    "compound": "CC(C)c1c(C(=O)Nc2ccccc2)c(-c2ccccc2)c(-c2ccc(F)cc2)n1CC[C@@H](O)C[C@@H](O)CC(=O)[O-].CC(C)c1c(C(=O)Nc2ccccc2)c(-c2ccccc2)c(-c2ccc(F)cc2)n1CC[C@@H](O)C[C@@H](O)CC(=O)[O-].[Ca+2]",
    "classification": "Condition not met"
  },
  {
    "compound": "CN(C)CCOC(c1ccccc1)c1ccccc1.Cn1c(=O)c2[nH]c(Cl)nc2n(C)c1=O [DIMENHYDRINATE]",
    "classification": "Condition met"
  },
  {
    "compound": "CC(C)NCC(O)COc1cccc2ccccc12.Cl (racemic) [PROPRANOLOL HYDROCHLORIDE (+/−)]",
    "classification": "Condition not met"
  },
  {
    "compound": "Nc1nc(=O)c2c([nH]1)NCC(CNc1ccc(C(=O)N[C@@H](CCC(=O)[O-])C(=O)[O-])cc1)N2C=O.[Ca+2] (stereo partly shown)",
    "classification": "Condition met"
  },
  {
    "compound": "COc1ccc2cc([C@H](C)C(=O)O)ccc2c1 [NAPROXEN(+)]",
    "classification": "Condition met"
  },
  {
    "compound": "Cc1cn([C@H]2C[C@H](N=[N+]=[N-])[C@@H](CO)O2)c(=O)[nH]c1=O [ZIDOVUDINE [AZT]]",
    "classification": "Condition not met"
  },
  {
    "compound": "CCOc1nc2cccc(C(=O)OC(C)OC(=O)OC3CCCCC3)c2n1Cc1ccc(-c2ccccc2-c2nn[nH]n2)cc1 (stereo not shown)",
    "classification": "Condition met"
  },
  {
    "compound": "CN(C)CC[C@@H](c1ccc(Cl)cc1)c1ccccn1.O=C(O)/C=C\\C(=O)O [CHLORPHENIRAMINE(S) MALEATE]",
    "classification": "Condition met"
  }
]

###

# assay-name: Hydroxyl radical antioxidant capacity (HORAC) assay
# Type: biochemical
# protocol-conditions: vs 12.5 μM gallic acid (=1), 60 min
Where a name gives a salt, the structure may show the parent alone.
Quick reference for mean HORAC-GAE (gallic acid equivalents) among some molecules
measured-parameter: mean HORAC-GAE (gallic acid equivalents)

[
  {
    "molecule": "CC(CN(C)C)CN1c2ccccc2CCc2ccccc21 (stereo not shown) [TRIMIPRAMINE MALEATE]",
    "recorded-value": 4.2
  },
  {
    "molecule": "CC1Cc2ccccc2N1NC(=O)c1ccc(Cl)c(S(N)(=O)=O)c1 (stereo not shown) [INDAPAMIDE]",
    "recorded-value": 4.1
  },
  {
    "molecule": "CNCCCN1c2ccccc2CCc2ccccc21 [DESIPRAMINE HYDROCHLORIDE]",
    "recorded-value": -5.00
  },
  {
    "molecule": "CN(C)CCCN1c2ccccc2CCc2ccc(Cl)cc21 [CLOMIPRAMINE HYDROCHLORIDE]",
    "recorded-value": 2.1
  }
]
